# Assay target: VLA-4 (Homo sapiens, UniProt P05556+P13612)
# Sequence (P13612 34-1032): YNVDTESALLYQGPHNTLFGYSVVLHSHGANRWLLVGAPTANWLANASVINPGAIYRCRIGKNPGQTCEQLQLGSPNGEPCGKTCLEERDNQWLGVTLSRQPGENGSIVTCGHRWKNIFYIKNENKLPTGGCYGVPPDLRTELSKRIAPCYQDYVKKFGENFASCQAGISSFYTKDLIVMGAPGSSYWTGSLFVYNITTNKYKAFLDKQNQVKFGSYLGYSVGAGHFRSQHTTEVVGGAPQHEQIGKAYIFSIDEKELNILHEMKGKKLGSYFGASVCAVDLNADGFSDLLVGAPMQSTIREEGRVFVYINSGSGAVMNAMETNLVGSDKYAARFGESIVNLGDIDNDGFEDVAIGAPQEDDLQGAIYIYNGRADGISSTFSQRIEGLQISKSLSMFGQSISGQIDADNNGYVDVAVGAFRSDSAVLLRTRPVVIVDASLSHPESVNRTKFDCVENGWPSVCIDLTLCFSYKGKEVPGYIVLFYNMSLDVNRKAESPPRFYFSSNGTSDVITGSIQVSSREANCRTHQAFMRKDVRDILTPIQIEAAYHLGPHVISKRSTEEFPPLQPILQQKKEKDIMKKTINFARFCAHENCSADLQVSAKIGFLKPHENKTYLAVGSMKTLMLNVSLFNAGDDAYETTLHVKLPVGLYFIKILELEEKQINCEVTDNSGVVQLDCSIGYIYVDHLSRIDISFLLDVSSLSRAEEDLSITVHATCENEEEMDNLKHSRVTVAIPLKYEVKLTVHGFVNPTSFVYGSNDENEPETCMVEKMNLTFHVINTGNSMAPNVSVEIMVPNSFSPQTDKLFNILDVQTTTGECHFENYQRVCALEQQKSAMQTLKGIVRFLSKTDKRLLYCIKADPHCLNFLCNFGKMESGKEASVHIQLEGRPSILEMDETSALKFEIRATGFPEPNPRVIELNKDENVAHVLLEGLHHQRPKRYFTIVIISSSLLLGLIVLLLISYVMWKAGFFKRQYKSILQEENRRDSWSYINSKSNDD
# Sequence (P05556 21-798): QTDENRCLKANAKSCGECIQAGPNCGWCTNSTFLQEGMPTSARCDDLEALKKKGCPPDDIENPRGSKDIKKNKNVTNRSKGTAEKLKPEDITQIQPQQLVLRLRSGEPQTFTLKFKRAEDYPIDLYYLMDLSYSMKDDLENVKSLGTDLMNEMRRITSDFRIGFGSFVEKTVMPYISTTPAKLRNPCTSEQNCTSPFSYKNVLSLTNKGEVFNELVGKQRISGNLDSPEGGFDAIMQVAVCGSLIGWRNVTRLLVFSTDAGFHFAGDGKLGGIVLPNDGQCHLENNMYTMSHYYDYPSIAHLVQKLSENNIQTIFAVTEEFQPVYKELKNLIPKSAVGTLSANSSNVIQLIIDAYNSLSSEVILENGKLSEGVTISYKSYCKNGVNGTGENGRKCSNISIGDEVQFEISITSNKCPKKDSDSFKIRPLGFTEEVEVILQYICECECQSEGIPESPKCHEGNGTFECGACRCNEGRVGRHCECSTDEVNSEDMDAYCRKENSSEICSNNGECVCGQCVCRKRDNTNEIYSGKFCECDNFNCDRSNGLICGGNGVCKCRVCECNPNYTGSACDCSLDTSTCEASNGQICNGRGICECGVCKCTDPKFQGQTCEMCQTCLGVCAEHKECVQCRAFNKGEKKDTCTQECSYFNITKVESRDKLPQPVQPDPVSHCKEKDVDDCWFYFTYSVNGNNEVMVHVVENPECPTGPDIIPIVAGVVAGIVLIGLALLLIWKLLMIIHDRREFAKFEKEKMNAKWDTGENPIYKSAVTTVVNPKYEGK
# Assay summary: In vitro binding assay: 51Cr-labeled Jurkat cells to solid phase-bound CS-1 compound (SEQ ID NO:1)
# Format: cell-based
# Design: inflammatory cells that contain the VLA-4 receptor [Jurkat cells; host or cells: Jurkat cells (human T lymphoblastic line)
# Conditions: binding inhibition potency (IC50) relative to standard compound of SEQ ID NO:3 = 1; about one-tenth or less assigned zero
Square brackets hold non-standard residues; d marks the D form. Peptide text beside a SMILES is read from it. * marks the point of attachment. Cha = N[C@@H](CC1CCCCC1)C(=O)O; NMeD = CN[C@@H](CC(=O)O)C(=O)O; PhAc = O=C(Cc1ccccc1)*; Bz = O=C(c1ccccc1)*
Observable: Relative Potency
// print number alone

Below, 3 compounds whose answers are already recorded.
- Compound: "NC(=O)[C@H]1CCCN1C(=O)[C@H](Cc1ccccc1)NC(=O)[C@H](CC(=O)O)NC(=O)[C@H](CC1CCCCC1)NC(=O)c1ccccc1 [896.31] (Bz-[Cha]DF[dP]-NH2)"
  Assay target: "VLA-4 (Homo sapiens, UniProt P05556+P13612)"
  Observable: "Relative Potency"
  Test value: 11
- Compound: "CC(C)C[C@H](NC(=O)Cc1ccccc1)C(=O)N(C)[C@@H](CC(=O)O)C(=O)N[C@@H](Cc1ccccc1)C(=O)N1CCC[C@@H]1C(N)=O [1190.06] (PhAc-L[NMeD]F[dP]-NH2)"
  Assay target: "VLA-4 (Homo sapiens, UniProt P05556+P13612)"
  Observable: "Relative Potency"
  Test value: 0
- Compound: "CC(C)C[C@H](NC(=O)Cc1ccccc1)C(=O)NC(CC(=O)O)(CC(=O)O)C(=O)N[C@@H](Cc1ccccc1)C(=O)N1CCCCC1"
  Assay target: "VLA-4 (Homo sapiens, UniProt P05556+P13612)"
  Observable: "Relative Potency"
  Test value: 0

Continue with the next compound.
stdin: # query: Relative Potency | item "O=C(O)C[C@H](NC1CCN(C(=O)Cc2ccccc2)CC1)C(=O)N[C@@H](Cc1ccccc1)C(=O)N1CCCC1" | system: VLA-4 (Homo sapiens, UniProt P05556+P13612)
stdout: 0
